FYI, the data here is from paper PMC11112747.

TESTED SYSTEM: CVN-E41A (Nostoc ellipsosporum, UniProt P81180, E41A)
Construct: monomeric variant; His-tag
ASSAY INFO: Isothermal titration calorimetry, protein titrated into GlcNAc in the cell, PBS pH 7.4, 298 K, one-set of sites model.
MEASUREMENT CONTEXT: SEM, n = 3; read-out: affinity Kd
ASSAY ENDPOINT: Kd (nM)
Report the figure in nM without appending any unit label.

What does the record list as Kd for CC(=O)N[C@H]1C(O)O[C@H](CO)[C@@H](O)[C@@H]1O (stereo partly drawn) [GlcNAc, N-acetyl-D-glucosamine] ?
2500

* * *

TESTED SYSTEM: mutant E41T dimer (Nostoc ellipsosporum, UniProt P81180, E41T)
Construct: His-tag
Sequence (P81180 whole entry E41T): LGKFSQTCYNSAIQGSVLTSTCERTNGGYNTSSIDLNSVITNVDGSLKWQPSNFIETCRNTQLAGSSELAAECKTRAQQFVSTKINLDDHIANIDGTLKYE
ASSAY INFO: Isothermal titration calorimetry, protein titrated into GlcNAc in the cell, PBS pH 7.4, 298 K, one-set of sites model.
Assay type: binding
MEASUREMENT CONTEXT: SEM, n = 3; read-out: affinity Kd
ASSAY ENDPOINT: Kd (µM)
Numbers only; they are read as µM.

Request - read-out Kd | tested on mutant E41T dimer (Nostoc ellipsosporum, UniProt P81180, E41T) | compound CC(=O)N[C@H]1C(O)O[C@H](CO)[C@@H](O)[C@@H]1O (stereo partly shown)
5.89
